- Tested on: P. falciparum female gametocytes
- testMethodNotes: P. falciparum Dual Gamete Formation Assay (PfDGFA), female readout (Pfs25-positive female gametes)
- Type: cell-based, Plasmodium falciparum NF54
- Method: […] The Pf DGFA was performed as described in Delves et al. 2016 [17]. […] Exflagellation was recorded by capturing 10 frames over 1 s under brightfield illumination using a x4 objective with a 1.5x zoom (effectively x6) attached to an automated Nikon Ti fluorescence microscope. […] The plates were then returned to the microscope and female gametes imaged at x6 using fluorescence microscopy. […]
assayEndpoint: Cytotox ratio Pf Female

mol=Br.CC[C@H]1CN2CCc3cc(OC)c(OC)cc3[C@@H]2C[C@@H]1C[C@H]1NCCc2c1cc(OC)c(O)c2I assayendpoint="Cytotox ratio Pf Female" recordedmeasurement=20.3
mol=CN1CCN(c2ccc(Nc3ncc(C#N)c(Nc4ccccc4C(N)=O)n3)cc2)CC1.Cl assayendpoint="Cytotox ratio Pf Female" recordedmeasurement=0.335
mol=Cc1sc2ncnc(Sc3nnc(N)s3)c2c1C assayendpoint="Cytotox ratio Pf Female" recordedmeasurement=57.4
mol=Nc1cc(C=Cc2ccc([N+](=O)[O-])o2)nc2ccccc12 assayendpoint="Cytotox ratio Pf Female" recordedmeasurement=17.9
mol=COc1ccc(Nc2ncc(Cl)c(Nc3cccnc3C(N)=O)n2)cc1N1CCN(C)CC1.Cl assayendpoint="Cytotox ratio Pf Female" recordedmeasurement=0.7
mol=CS(=O)(=O)Cc1ccc(Nc2ncc(Cl)c(Nc3cccnc3C(N)=O)n2)cc1.Cl assayendpoint="Cytotox ratio Pf Female" recordedmeasurement=10.0
mol=Cc1cccc(Nc2nc(N[C@@H]3CCCNC3)nc3cc[nH]c(=O)c23)c1.O=C(O)C(F)(F)F assayendpoint="Cytotox ratio Pf Female" recordedmeasurement=0.532
mol=COc1ccc(Nc2ncc(OC)c(Nc3ccccc3C(N)=O)n2)cc1N1CCN(C)CC1.O=CO assayendpoint="Cytotox ratio Pf Female" recordedmeasurement=1.2
mol=O=C(O)CCSSc1cccc[n+]1[O-] assayendpoint="Cytotox ratio Pf Female" recordedmeasurement=85.2

Where do these numbers come from? They come from paper PMC10584170.
